# measuredOn: Human HDAC2 (Homo sapiens)
# Construct: full length with C-terminal GST-tag; GST (C); host or cells: baculovirus expression system
# Sequence (Q92769 whole entry): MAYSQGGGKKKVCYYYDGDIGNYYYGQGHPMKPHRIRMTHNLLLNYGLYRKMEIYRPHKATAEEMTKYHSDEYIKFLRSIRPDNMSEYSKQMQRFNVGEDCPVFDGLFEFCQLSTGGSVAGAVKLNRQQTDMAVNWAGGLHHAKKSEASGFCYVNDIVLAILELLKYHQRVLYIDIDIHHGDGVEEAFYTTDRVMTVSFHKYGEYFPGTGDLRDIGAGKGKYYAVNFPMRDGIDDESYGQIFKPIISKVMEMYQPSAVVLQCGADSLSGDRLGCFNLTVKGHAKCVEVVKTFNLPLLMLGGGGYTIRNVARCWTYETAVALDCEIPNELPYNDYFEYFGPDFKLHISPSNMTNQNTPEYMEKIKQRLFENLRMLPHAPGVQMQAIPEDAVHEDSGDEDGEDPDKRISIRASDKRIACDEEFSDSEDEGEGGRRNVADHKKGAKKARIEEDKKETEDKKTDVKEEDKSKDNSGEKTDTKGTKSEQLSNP
# experimentNotes: HDAC2 biochemical assay, AMC-labeled peptide substrate
# testConditions: read-out: HDAC Isoform IC50 (nM) 2
Consider the following compounds; for each one, report its IC50.

I need IC50 for every entry listed below, if you could help.
1. CC(=O)Nc1cnnc(N(Cc2ccc(-c3noc(C(F)(F)F)n3)s2)c2cnccn2)c1 [Example FM]
2. O=C(c1cnnc(N(Cc2ccc(-c3noc(C(F)(F)F)n3)s2)c2cnccn2)c1)N1CCC1 [Example FS]
3. O=C(c1ccc(N(Cc2ccc(-c3noc(C(F)(F)F)n3)s2)c2cnccn2)nn1)N1C[C@@H]2C[C@H]1C[S@@+]2[O-] [Example FR]
4. O=C(c1ccc(N(Cc2ccc(-c3noc(C(F)(F)F)n3)s2)c2cnccn2)nn1)N1CC[S+]([O-])CC1 [Example FD]

Solution:
1. > 10000 nM
2. > 10000 nM
3. > 10000 nM
4. > 10000 nM

I'm hoping you can list IC50 for every compound here, please.
1. CC(F)(F)c1cnnc(N(Cc2ccc(-c3noc(C(F)(F)F)n3)s2)c2cnccn2)c1 [Example GU]
2. NC(=O)c1nccnc1N(Cc1ccc(-c2noc(C(F)(F)F)n2)s1)c1cnccn1 [Example GO]

Solution:
1: > 10000 nM; 2: > 10000 nM

====

# measuredOn: Recombinant human HDAC6 (Homo sapiens, UniProt Q9UBN7)
# Construct: full length, MW=159 kDa; GST (N); host or cells: Sf9 insect cells (baculovirus)
# Sequence (Q9UBN7 whole entry): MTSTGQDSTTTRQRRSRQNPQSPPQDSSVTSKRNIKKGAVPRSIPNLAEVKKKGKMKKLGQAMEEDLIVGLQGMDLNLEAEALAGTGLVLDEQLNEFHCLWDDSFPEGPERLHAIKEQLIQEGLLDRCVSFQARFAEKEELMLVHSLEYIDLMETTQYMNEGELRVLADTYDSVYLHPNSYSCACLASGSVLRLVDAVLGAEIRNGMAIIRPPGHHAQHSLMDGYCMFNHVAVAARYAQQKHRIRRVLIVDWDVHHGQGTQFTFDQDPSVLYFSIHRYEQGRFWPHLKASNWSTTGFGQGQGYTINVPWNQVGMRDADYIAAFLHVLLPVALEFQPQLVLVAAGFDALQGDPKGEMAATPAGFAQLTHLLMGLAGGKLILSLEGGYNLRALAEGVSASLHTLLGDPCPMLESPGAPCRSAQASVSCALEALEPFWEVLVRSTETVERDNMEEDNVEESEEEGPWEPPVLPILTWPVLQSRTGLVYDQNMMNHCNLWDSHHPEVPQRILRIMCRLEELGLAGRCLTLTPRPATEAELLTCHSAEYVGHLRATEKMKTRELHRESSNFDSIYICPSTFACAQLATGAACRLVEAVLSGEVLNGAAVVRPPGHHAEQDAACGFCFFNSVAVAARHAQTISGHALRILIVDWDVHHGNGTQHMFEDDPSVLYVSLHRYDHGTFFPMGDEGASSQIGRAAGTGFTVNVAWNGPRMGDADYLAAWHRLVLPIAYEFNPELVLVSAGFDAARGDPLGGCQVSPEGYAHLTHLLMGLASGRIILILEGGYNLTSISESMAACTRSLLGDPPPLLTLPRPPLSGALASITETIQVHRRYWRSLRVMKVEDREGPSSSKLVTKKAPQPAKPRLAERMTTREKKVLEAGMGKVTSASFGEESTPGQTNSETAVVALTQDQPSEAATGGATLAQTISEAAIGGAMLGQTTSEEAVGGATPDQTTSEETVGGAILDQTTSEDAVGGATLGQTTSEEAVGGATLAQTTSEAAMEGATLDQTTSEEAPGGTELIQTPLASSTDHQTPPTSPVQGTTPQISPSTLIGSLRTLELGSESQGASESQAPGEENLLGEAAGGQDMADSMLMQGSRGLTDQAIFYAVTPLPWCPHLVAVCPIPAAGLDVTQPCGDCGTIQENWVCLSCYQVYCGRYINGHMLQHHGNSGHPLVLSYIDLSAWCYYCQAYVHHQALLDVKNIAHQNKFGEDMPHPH
# experimentNotes: HDAC6 biochemical assay, AMC-labeled peptide substrate
# testConditions: HDAC6; read-out: HDAC Isoform IC50 (nM) 6
measurementLabel: IC50

Past entries and their recorded results:
chemicalstructure=COc1cnnc(N(Cc2ccc(-c3noc(C(F)(F)F)n3)s2)c2cnccn2)c1 result="≤ 10000 nM"
chemicalstructure=COC1CN(C(=O)c2cnnc(N(Cc3ccc(-c4noc(C(F)(F)F)n4)s3)c3cnccn3)c2)C1 result="≤ 500 nM"
chemicalstructure=O=C(O)c1ccc(N(Cc2sc(-c3noc(C(F)(F)F)n3)cc2F)c2cnccn2)nn1 result="≤ 10000 nM"
chemicalstructure=O=C(c1cnnc(N(Cc2ccc(-c3noc(C(F)(F)F)n3)s2)c2cnccn2)c1)N1CCOCC1 result="≤ 500 nM"
chemicalstructure=FC(F)(F)c1cnnc(N(Cc2ccc(-c3noc(C(F)(F)F)n3)s2)c2ccccn2)c1 result="≤ 10000 nM"

Return reported IC50 values for all items listed beneath this line.
1. Cc1ncc(N(Cc2ccc(-c3noc(C(F)(F)F)n3)s2)c2cnccn2)c(C)n1
2. O=C(c1cnnc(N(Cc2ccc(-c3noc(C(F)(F)F)n3)s2)c2cnccn2)c1)N1CCC(F)(F)CC1
3. CC(C)(O)c1cnnc(N(Cc2ccc(-c3noc(C(F)(F)F)n3)s2)c2cnccn2)c1
4. NC(=O)c1nccnc1N(Cc1ccc(-c2noc(C(F)(F)F)n2)s1)c1cnccn1
5. FC(F)(F)c1nc(-c2ccc(CN(c3cnccn3)c3cnc(-c4ccco4)cn3)s2)no1
6. FC(F)(F)c1nc(-c2ccc(CN(c3cnccn3)c3ccc4ncccc4n3)s2)no1
7. FC(F)(F)c1nc(-c2ccc(CN(c3cnccn3)c3cc(CN4CCCC4)ccn3)s2)no1

Solution:
["≤ 10000 nM", "≤ 500 nM", "≤ 500 nM", "≤ 1000 nM", "≤ 10000 nM", "≤ 1000 nM", "≤ 1000 nM"]

For every item in the list below, what is its measured IC50?
1. FC(F)(F)c1cnnc(N(Cc2ccc(-c3noc(C(F)(F)F)n3)s2)c2ncccc2N2CCOCC2)c1
2. FC(F)(F)c1nc(-c2ccc(CN(c3ccncc3)c3cnccn3)s2)no1
3. CNC(=O)c1cnnc(N(Cc2ccc(-c3noc(C(F)(F)F)n3)s2)c2cnccn2)c1
4. FC(F)(F)c1nc(-c2ccc(CN(c3cncnc3)c3cnccn3)s2)no1

Solution:
≤ 10000 nM
≤ 500 nM
≤ 500 nM
≤ 500 nM

====

# measuredOn: Human HDAC4 (Homo sapiens)
# Construct: amino acids 627-1085 with N-terminal GST tag; GST (N); host or cells: baculovirus expression system
# Sequence (P56524 627-1084 limits assumed): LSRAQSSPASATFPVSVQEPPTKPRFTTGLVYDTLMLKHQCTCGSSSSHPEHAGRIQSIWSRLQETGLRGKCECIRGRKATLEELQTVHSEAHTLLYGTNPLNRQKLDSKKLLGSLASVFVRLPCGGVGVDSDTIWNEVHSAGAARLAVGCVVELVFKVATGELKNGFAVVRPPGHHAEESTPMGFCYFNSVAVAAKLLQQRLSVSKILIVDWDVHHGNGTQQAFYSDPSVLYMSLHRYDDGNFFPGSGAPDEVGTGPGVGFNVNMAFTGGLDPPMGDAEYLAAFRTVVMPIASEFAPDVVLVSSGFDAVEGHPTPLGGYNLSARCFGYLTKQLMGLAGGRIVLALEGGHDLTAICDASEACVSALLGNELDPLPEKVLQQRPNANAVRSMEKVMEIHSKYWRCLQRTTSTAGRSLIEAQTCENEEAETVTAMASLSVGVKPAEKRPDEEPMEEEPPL
# experimentNotes: HDAC4 biochemical assay, class IIa-specific substrate
# testConditions: read-out: HDAC Isoform IC50 (nM) 4
measurementLabel: IC50

Examples with answers:
chemicalstructure=FC(F)(F)c1nc(-c2ccc(CN(c3cnccn3)c3ccc(-c4ccccc4)nn3)s2)no1 result="≤ 1000 nM"
chemicalstructure=CNC(=O)c1cnnc(N(Cc2ccc(-c3noc(C(F)(F)F)n3)s2)c2cnccn2)c1 result="≤ 1000 nM"
chemicalstructure=Cc1cncc(N(Cc2ccc(-c3noc(C(F)(F)F)n3)s2)c2cnccn2)n1 result="≤ 1000 nM"
chemicalstructure=CN1CCN(C(=O)c2cnnc(N(Cc3ccc(-c4noc(C(F)(F)F)n4)s3)c3cnccn3)c2)CC1 result="≤ 10000 nM"
chemicalstructure=FC(F)(F)c1cnnc(N(Cc2ccc(-c3noc(C(F)(F)F)n3)s2)c2ccc(N3CCCC3)nn2)c1 result="≤ 10000 nM"

// input: 3 compounds below; output: IC50 for each
1. COc1cnnc(N(Cc2ccc(-c3noc(C(F)(F)F)n3)s2)c2cnccn2)c1
2. Cn1cnc2cc(N(Cc3ccc(-c4noc(C(F)(F)F)n4)s3)c3cnccn3)ncc21
3. O=C(O)c1ccc(N(Cc2sc(-c3noc(C(F)(F)F)n3)cc2F)c2cnccn2)nn1

Solution:
["≤ 10000 nM", "≤ 500 nM", "≤ 10000 nM"]

I would be grateful if you could provide IC50 for each of the following entries.
1. FC(F)(F)c1nc(-c2ccc(CN(c3cnccn3)c3ccnc4ccnn34)s2)no1
2. FC(F)(F)c1nc(-c2ccc(CN(c3cnccn3)c3cnc4[nH]ccc4n3)s2)no1

Solution:
1: ≤ 1000 nM; 2: ≤ 500 nM

Give measured IC50 for every item shown.
1. O=C(c1cnnc(N(Cc2ccc(-c3noc(C(F)(F)F)n3)s2)c2cnccn2)c1)N1CC(O)(C(F)(F)F)C1
2. NC(=O)c1ccc(N(Cc2ccc(-c3noc(C(F)(F)F)n3)s2)c2cnccn2)nn1
3. FC(F)(F)c1nc(-c2ccc(CN(c3cnccn3)c3cscn3)s2)no1
4. FC(F)(F)c1nc(-c2ccc(CN(c3cnccn3)c3ccc4nncn4n3)s2)no1
5. Fc1cnc(N(Cc2ccc(-c3noc(C(F)(F)F)n3)s2)c2cnccn2)nc1
6. FC(F)(F)c1nc(-c2ccc(CN(c3cnccn3)c3cnsn3)s2)no1
7. COc1cncc(N(Cc2ccc(-c3noc(C(F)(F)F)n3)s2)c2cnccn2)n1

Solution:
1: ≤ 10000 nM; 2: ≤ 500 nM; 3: ≤ 1000 nM; 4: ≤ 10000 nM; 5: ≤ 10000 nM; 6: ≤ 1000 nM; 7: ≤ 10000 nM

Look up IC50 for the entries below, preserving their order.
1. O=C(c1cncc(N(Cc2ccc(-c3noc(C(F)(F)F)n3)s2)c2cnccn2)c1)N1CCOCC1
2. O=C(c1cnnc(N(Cc2ccc(-c3noc(C(F)(F)F)n3)s2)c2cnccn2)c1)N1C2CCC1COC2
3. FC(F)(F)c1nc(-c2ccc(CN(c3ccncc3)c3cnccn3)s2)no1

Solution:
≤ 1000 nM
≤ 10000 nM
≤ 500 nM

====

# measuredOn: Human HDAC9 (Homo sapiens, UniProt Q9UKV0)
# Construct: amino acids 604-1066 with C-terminal His tag; His (C); host or cells: baculovirus expression system
# Sequence (Q9UKV0 604-1066 isoform Q9UKV0-5): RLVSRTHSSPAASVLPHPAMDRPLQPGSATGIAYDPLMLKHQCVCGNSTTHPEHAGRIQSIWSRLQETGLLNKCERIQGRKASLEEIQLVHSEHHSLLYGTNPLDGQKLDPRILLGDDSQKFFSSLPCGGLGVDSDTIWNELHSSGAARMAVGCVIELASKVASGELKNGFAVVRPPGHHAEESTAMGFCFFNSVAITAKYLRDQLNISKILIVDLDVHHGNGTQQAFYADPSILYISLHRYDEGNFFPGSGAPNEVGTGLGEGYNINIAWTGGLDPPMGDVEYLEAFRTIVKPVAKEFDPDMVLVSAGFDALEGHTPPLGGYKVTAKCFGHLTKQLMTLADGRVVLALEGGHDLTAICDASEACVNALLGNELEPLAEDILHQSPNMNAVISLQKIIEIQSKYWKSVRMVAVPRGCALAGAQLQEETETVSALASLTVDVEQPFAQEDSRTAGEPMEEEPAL
# experimentNotes: HDAC9 biochemical assay, class IIa-specific substrate
# testConditions: read-out: HDAC Isoform IC50 (nM) 9
measurementLabel: IC50

Answered cases to consult:
chemicalstructure=Cc1ncc(N(Cc2ccc(-c3noc(C(F)(F)F)n3)s2)c2cnccn2)c(C)n1 measurementlabel=IC50 result="≤ 1000 nM"
chemicalstructure=FC(F)(F)c1nc(-c2ccc(CN(c3cnccn3)c3ccc4nccn4n3)s2)no1 measurementlabel=IC50 result="≤ 1000 nM"
chemicalstructure=FC(F)(F)c1nc(-c2ccc(CN(c3cnccn3)c3cscn3)s2)no1 measurementlabel=IC50 result="≤ 10000 nM"
chemicalstructure=FC(F)(F)c1nc(-c2ccc(CN(c3cnc(C4CC4)nc3)c3cnccn3)s2)no1 measurementlabel=IC50 result="≤ 10000 nM"
chemicalstructure=CS(=O)(=O)c1cnc(N(Cc2ccc(-c3noc(C(F)(F)F)n3)s2)c2cnccn2)cn1 measurementlabel=IC50 result="≤ 10000 nM"
chemicalstructure=FC(F)(F)c1cnnc(N(Cc2ccc(-c3noc(C(F)(F)F)n3)s2)c2ncccn2)c1 measurementlabel=IC50 result="> 10000 nM"
chemicalstructure=O=C(c1cnnc(N(Cc2ccc(-c3noc(C(F)(F)F)n3)s2)c2cnccn2)c1)N1CC2CCC(C1)O2 measurementlabel=IC50 result="≤ 10000 nM"
chemicalstructure=FC(F)(F)c1nc(-c2ccc(CN(c3cnccn3)c3cc(CN4CCOCC4)ccn3)s2)no1 measurementlabel=IC50 result="≤ 10000 nM"

State recorded IC50 for all listed compounds.
1. COC1(C(F)(F)F)CN(C(=O)c2cnnc(N(Cc3ccc(-c4noc(C(F)(F)F)n4)s3)c3cnccn3)c2)C1
2. FC(F)(F)c1nc(-c2ccc(CN(c3ccncn3)c3cnccn3)s2)no1
3. O=C(c1cnnc(N(Cc2ccc(-c3noc(C(F)(F)F)n3)s2)c2cnccn2)c1)N1CC(C(F)(F)F)C1
4. COc1cnnc(N(Cc2ccc(-c3noc(C(F)(F)F)n3)s2)c2cnccn2)c1
5. FC(F)(F)c1cnnc(N(Cc2ccc(-c3noc(C(F)(F)F)n3)s2)c2ccc(N3CCCC3)nn2)c1

Solution:
["≤ 10000 nM", "≤ 500 nM", "≤ 10000 nM", "≤ 10000 nM", "≤ 10000 nM"]
